# experiment: Metabolic stability in human liver microsomes assessed as compound remaining at 5 uM after 60 mins by LCMS analysis relative to 0 mins
# Format: ADME, Microsome
# protocol.conditions: read-out: Stability
value.type: remaining at 1 h, 5 µM (%)
Supply the numeric figure in %, leaving out any unit text.

Use these answered entries as a reference point.
CC=C1CC[C@H]2[C@@H]3CCc4cc(O)c(OC)cc4[C@H]3CC[C@]12C :: 0.8
CC[C@H]1CC[C@H]2[C@@H]3CCc4cc(O)c(OC)cc4[C@H]3CC[C@]12C :: 72
C=C1CC[C@H]2[C@@H]3CCc4cc(O)c(OC)cc4[C@H]3CC[C@]12C :: 5.8
COc1cc2c(cc1O)CC[C@@H]1[C@@H]2CC[C@]2(C)[C@@H](N)CC[C@@H]12 :: 9
COc1cc2c(cc1O)CC[C@@H]1[C@@H]2CC[C@]2(C)CCC[C@@H]12 :: 117
COc1cc2c(cc1O)CC[C@@H]1[C@@H]2CC[C@]2(C)[C@@H](C)CC[C@@H]12 :: 47
COc1cc2c(cc1O)CC[C@@H]1[C@@H]2CC[C@]2(C)[C@@H](O)CC[C@@H]12 :: 9.4

Continue with the next molecule.
Prompt: Tell us which remaining at 1 h, 5 µM value is on record for C[C@@]12CCC[C@H]1[C@@H]1CCc3cc(O)c(NC=O)cc3[C@H]1CC2
Response: 68

====

# experiment: Metabolic stability in human liver microsomes assessed as compound remaining at 5 uM after 15 mins by LCMS analysis relative to 0 mins
# Format: ADME, Microsome
# protocol.conditions: read-out: Stability
Below, each of the compounds is paired with its reported remaining at 0.25 h, 5 µM value.
Supply the numeric figure in %, leaving out any unit text.

Use these answered entries as a reference point.
C[C@@]12CCC[C@H]1[C@@H]1CCc3cc(O)c(NC=O)cc3[C@H]1CC2 :: 101
CC[C@H]1CC[C@H]2[C@@H]3CCc4cc(O)c(OC)cc4[C@H]3CC[C@]12C :: 91
COc1cc2c(cc1O)CC[C@@H]1[C@@H]2CC[C@]2(C)[C@@H](O)CC[C@@H]12 :: 58
COc1cc2c(cc1O)CC[C@@H]1[C@@H]2CC[C@]2(C)CCC[C@@H]12 :: 94
C=C1CC[C@H]2[C@@H]3CCc4cc(O)c(OC)cc4[C@H]3CC[C@]12C :: 76

Prompt: Tell us which remaining at 0.25 h, 5 µM value is on record for COc1cc2c(cc1O)CC[C@@H]1[C@@H]2CC[C@]2(C)[C@@H](N)CC[C@@H]12
Response: 32

Prompt: Tell us which remaining at 0.25 h, 5 µM value is on record for CC=C1CC[C@H]2[C@@H]3CCc4cc(O)c(OC)cc4[C@H]3CC[C@]12C
Response: 75

Prompt: Tell us which remaining at 0.25 h, 5 µM value is on record for COc1cc2c(cc1O)CC[C@@H]1[C@@H]2CC[C@]2(C)[C@@H](C)CC[C@@H]12
Response: 67

====

# experiment: Metabolic stability in human liver microsomes assessed as compound remaining at 5 uM after 30 mins by LCMS analysis relative to 0 mins
# Type: ADME, Microsome
# protocol.conditions: read-out: Stability
value.type: remaining at 0.5 h, 5 µM
Respond with a number, then the unit of measure.

COc1cc2c(cc1O)CC[C@@H]1[C@@H]2CC[C@]2(C)[C@@H](O)CC[C@@H]12 :: 29%
COc1cc2c(cc1O)CC[C@@H]1[C@@H]2CC[C@]2(C)CCC[C@@H]12 :: 101%
COc1cc2c(cc1O)CC[C@@H]1[C@@H]2CC[C@]2(C)[C@@H](N)CC[C@@H]12 :: 30%

Prompt: Tell us which remaining at 0.5 h, 5 µM value is on record for CC[C@H]1CC[C@H]2[C@@H]3CCc4cc(O)c(OC)cc4[C@H]3CC[C@]12C
Response: 76%

Prompt: Tell us which remaining at 0.5 h, 5 µM value is on record for C=C1CC[C@H]2[C@@H]3CCc4cc(O)c(OC)cc4[C@H]3CC[C@]12C
Response: 67%

Prompt: Tell us which remaining at 0.5 h, 5 µM value is on record for COc1cc2c(cc1O)CC[C@@H]1[C@@H]2CC[C@]2(C)[C@@H](C)CC[C@@H]12
Response: 57%

Prompt: Tell us which remaining at 0.5 h, 5 µM value is on record for C[C@@]12CCC[C@H]1[C@@H]1CCc3cc(O)c(NC=O)cc3[C@H]1CC2
Response: 86%

Prompt: Tell us which remaining at 0.5 h, 5 µM value is on record for CC=C1CC[C@H]2[C@@H]3CCc4cc(O)c(OC)cc4[C@H]3CC[C@]12C
Response: 75%
